PROTOCOL: NCI Yeast Anticancer Drug Screen. Data for the rad50 strain (AID 155);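 note: 0% = growth of vehicle-only cultures of the same strain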
CONDITION SET: S. cerevisiae rad50 strain growth inhibition; at 50.0 µM (retest, dose inferred, filed as 5.0); hits give high values
This is part of a sample that, as a whole, favours compounds with a hit. Of some 79,000 tested, about 15% had one in any assay.
OBSERVATION TYPE: growth inhibition (%)

>>> endpoint_result("CC[C@H](CC[C@@H](C)C1CC[C@H]2[C@@H]3CCC4=CC(=O)CC[C@]4(C)[C@H]3CC[C@]12C)C(C)C (stereo not given in full)")
18
>>> endpoint_result("C(#Cc1ccccc1)Sc1ccccc1")
4
>>> endpoint_result("CNCCN[C@@H]1c2cc3c(cc2[C@@H](c2cc(OC)c(O)c(OC)c2)[C@H]2C(=O)OC[C@@H]21)OCO3")
97
>>> endpoint_result("C[C@@H]1CC=C[C@@H](NC(=O)OCc2ccccc2)[C@H]1C=O")
30
>>> endpoint_result("C=C1C(=O)[C@@]23CC[C@H]4[C@@](C)(CCC[C@@]4(C)C(=O)OC)[C@@H]2CC[C@]1(O)C3")
99
>>> endpoint_result("CCCCCCCCCCNC(=O)CBr")
99
>>> endpoint_result("CCCCC(CC)CNc1ncnc2c1cnn2C (stereo not given)")
92
>>> endpoint_result("CC(=O)OCC1OC(N2CCc3cc([N+](=O)[O-])ccc32)C(OC(C)=O)C(OC(C)=O)C1OC(C)=O (stereo not given)")
-4
>>> endpoint_result("CCCCCCCCCCN")
51
>>> endpoint_result("CCN(CC)CC(O)CNc1ccc(NCC(O)CCl)c2c1C(=O)c1ccccc1C2=O (stereo not given)")
98
>>> endpoint_result("OC1(c2ccccc2)c2ccccc2Sc2ccccc21")
99
>>> endpoint_result("NC1C(=O)C2CCCCC2C(=O)C1C(=O)c1ccccc1 (stereo not given)")
28
>>> endpoint_result("O=C(Sc1ccccc1)C1OC12CCCCC2 (stereo not given)")
-116
>>> endpoint_result("CC(C)(C)c1cc2c(c(C(C)(C)C)c1O)CC(=O)O2")
74
>>> endpoint_result("C/C=C1\\CC(C)(CC)C(C#N)(C#N)C(N)=C1C#N (stereo not given)")
-9
>>> endpoint_result("O=[N+]([O-])c1ccc(-c2cccc(Cl)c2)c([N+](=O)[O-])c1")
98
>>> endpoint_result("Nc1nc(-c2ccccc2)c(N=Nc2c(Cl)cccc2Cl)s1")
94
>>> endpoint_result("CCOC(=O)c1[nH]cc(C)c1-c1ccc2c(-c3ccccc3)nc3ccccc3n12")
65
>>> endpoint_result("Cc1cc(NC(=S)SC(C)C)ccc1Br")
99
>>> endpoint_result("Cc1c2ccnc(-c3ccc(F)cc3)c2cc2c1[nH]c1ccccc12")
1
>>> endpoint_result("Cc1ccc(O)cc1CCCCO")
-4
>>> endpoint_result("CCOC(=O)N1CCN(C(=S)N/N=C(\\C)c2ncccn2)CC1")
99
>>> endpoint_result("O=C(CC1Sc2ccccc2NC1=O)Nc1ccc([N+](=O)[O-])cc1[N+](=O)[O-] (stereo not given)")
81
>>> endpoint_result("OCC(O)C(O)C(O)C(/C=N/Nc1ccccc1)=N\\Nc1ccccc1 (stereo not given)")
-3
>>> endpoint_result("CCOC(=O)C(=O)Nc1nc2c(s1)C(=O)c1ccccc1C2=O")
96
>>> endpoint_result("CCCCCCCCCCCCCCOS(=O)(=O)O")
99
>>> endpoint_result("O=C1/C(=C/c2cccc([N+](=O)[O-])c2)CCCc2ccccc21")
92
>>> endpoint_result("O=C(O)c1cccc(S(=O)(=O)NN2C(=O)CSC2c2c(O)ccc3ccccc23)c1 (stereo not given)")
50
>>> endpoint_result("O=C([O-])C[n+]1c(/C=C/c2ccccc2)ccc2ccccc21")
69
>>> endpoint_result("Clc1ccc(C2=C(c3ccccc3)C(c3ccc(Cl)cc3)N3C(=N[C@H]4CCCC[C@@H]43)N2)cc1 (stereo not given in full)")
15
>>> endpoint_result("COc1ccc(COCCOCc2nc(C#N)c(N)o2)cc1")
8
>>> endpoint_result("CCN(CC)CCCC(C)Nc1cc(F)cc2cccnc12 (stereo not given)")
81
>>> endpoint_result("Cc1cc(NCCCCCCNc2cc(C)nc3cc(N(C)C)ccc23)c2ccc(N(C)C)cc2n1")
90
>>> endpoint_result("O=C(NCCl)Nc1ccccc1")
62
>>> endpoint_result("O=C(c1ccccc1)C1Cc2ccccc2C1=O (stereo not given)")
39
>>> endpoint_result("Cc1cc(O)c(NCCN(C)C)c2c(=O)c3ccccc3sc12")
97
>>> endpoint_result("CC(=O)c1c2c(cc3c1CC1(C3)Cc3cc4c(c(C(=O)O)c3C1)CCCC4)CCCC2 (stereo not given) (tested in a mixture with another compound)")
99
>>> endpoint_result("CC(=O)Oc1ccc(Cl)cc1Cc1cc(Cl)ccc1OC(C)=O")
85
>>> endpoint_result("O=C1C=C(Cl)C(=O)C2=C1CCCC2")
89
>>> endpoint_result("O=C(Nc1cccc(Cl)c1)OCCN(CCOC(=O)Nc1cccc(Cl)c1)C(=O)Nc1cccc(Cl)c1")
76
>>> endpoint_result("CN1C(OCc2ccccc2)c2c(ccc3c2OCO3)C2C=Cc3cc4c(cc3C21)OCO4 (stereo not given)")
99
>>> endpoint_result("O=[N+]([O-])c1ccc(N2N=NC(CN3CCOCC3)C2N2CCOCC2)cc1 (stereo not given)")
42
>>> endpoint_result("CCc1cccc(C)c1NC(=O)/C(Cl)=C(\\Cl)C(=O)O")
99
>>> endpoint_result("Cc1ccc(C)c(C(=O)/C=C/C(=O)O)c1")
100
>>> endpoint_result("c1ccc(-c2c[nH]c(-c3ccccc3)c2-c2ccccc2)cc1")
90

* * *

PROTOCOL: NCI Yeast Anticancer Drug Screen. Data for the mec2-1 strain (AID 157)
CONDITION SET: S. cerevisiae mec2-1 strain, at 5.0 µM (retest, dose inferred, filed as 0.5)
This is part of a sample that, as a whole, favours compounds with a hit. Of some 79,000 tested, about 15% had one in any assay. Activity calls are given as the source filed them. Cut-off read from the data, not from the text of the source: active = growth inhibition above about 70%; inactive = the rest.
Outcomes: active, inactive

>>> discrete_label("O=C(O)c1ccc(N=CC2CO2)cc1 (configuration not stated)")
"inactive"
>>> discrete_label("CN=C1NS(=O)(=O)c2ccccc21")
"inactive"
>>> discrete_label("[Cl][Pt+2][Cl].[NH-]CC1(C[NH-])CCCC1")
"inactive"
>>> discrete_label("CC(CN(C)C)C(/C=C/c1ccc(Cl)c(Cl)c1)=N\\Nc1ccccc1 (configuration not stated)")
"inactive"
>>> discrete_label("CC12CCCCC1CCC(Br)C2=O (configuration not stated)")
"inactive"
>>> discrete_label("O=C(Sc1ccccc1)C1OC12CCCCC2 (configuration not stated)")
"inactive"
>>> discrete_label("O=C1/C(=C/c2ccc(F)cc2)CNC/C1=C\\c1ccc(F)cc1")
"inactive"
>>> discrete_label("CCOC(=O)c1ccccc1NC(OCC)C(=O)c1ccccc1 (configuration not stated) (tested in a mixture with another compound)")
"inactive"
>>> discrete_label("NC(=O)c1ccccc1OC(=O)NCCO")
"inactive"
>>> discrete_label("Cc1ccc(Oc2ccc(C(=O)C(CN(C)C)CN(C)C)cc2)cc1")
"active"
>>> discrete_label("O=C1C(Cl)=C(Nc2cc(Cl)ccc2Cl)C(=O)c2ccccc21")
"inactive"
>>> discrete_label("CCc1ccccc1NC(=O)C(=O)C(C#N)c1c(Cl)cccc1Cl (configuration not stated)")
"inactive"

* * *

# growth inhibition values compiled below
PROTOCOL: NCI Yeast Anticancer Drug Screen. Data for the bub3 strain (AID 167)
CONDITION SET: S. cerevisiae bub3 mutant strain, at 5.0 µM (retest, dose inferred, filed as 0.5), hits give high values
The panel holds about 79,000 compounds, 15% with a hit somewhere; the sample as a whole holds those more often.
OBSERVATION TYPE: growth inhibition (%)

>>> endpoint_result("CC(=O)Nc1ccc(O)c(=O)cc1")
23
>>> endpoint_result("CC(=O)OC1CCC2(C)C(=CCC3C2CCC2(C)C(C(C)N)CCC32)C1 (stereo not given)")
1
>>> endpoint_result("NCCCNCc1c2ccccc2c(CNCCCN)c2ccccc12")
15
>>> endpoint_result("CCOc1c(N=Nc2ccc(OC)cc2)c(-c2ccccc2)nn1C(N)=S")
3
>>> endpoint_result("CCCCCCCCN(CCCCCCCC)Cc1ccc(Br)cc1")
96
>>> endpoint_result("N=C(N)Sc1ccc([N+](=O)[O-])cc1Cl")
40
>>> endpoint_result("O=C(O)NCc1ccccc1 (tested in a mixture with another compound)")
23
>>> endpoint_result("Nc1ccc([N+](=O)[O-])cc1Nc1c2ccccc2nc2ccccc12")
-4
>>> endpoint_result("C=CCOC(=O)CC(O)C(=O)OCC=C (stereo not given)")
0
>>> endpoint_result("O=C(O)/C(=C/c1ccc(Cl)cc1)c1ccccc1")
-8
>>> endpoint_result("CC[N+](C)(CC)CCC[n+]1c(-c2ccccc2)c2cc(N)ccc2c2ccc(N)cc21")
-7
>>> endpoint_result("COc1cccc2c1C1c3ccccc3Sc3cccc(c31)O2 (stereo not given)")
-1
>>> endpoint_result("CN1CCN(CCCN)CC1")
17
>>> endpoint_result("CCCCc1ccc2c(c1)Nc1cc3ccccc3cc1N2")
6
>>> endpoint_result("O=C1OC2(c3ccccc31)c1cc(I)c(O)c(I)c1Oc1c2cc(I)c(O)c1I")
15
>>> endpoint_result("CC1/C=C/C=C/CC/C=C/C=C/C=C/C=C/C(OC2OC(C)C(O)C(N)C2O)CC2OC(CC(O)C(O)CCC(O)CC(O)CC(O)CC(=O)OC(C)C(C)C1O)CC(O)C2C(=O)O (stereo not given)")
99
>>> endpoint_result("CC1CCN(CCOC(=O)C(c2ccccc2)C2C=CCCC2)C1 (stereo not given)")
9
>>> endpoint_result("C=CC1(C)CCC2C(=CCC3C(C)(C(=O)O)CCCC23C)C1 (stereo not given) (tested in a mixture with another compound)")
-17
>>> endpoint_result("C=CCc1cccc(/C=N\\N=C(/N)NO)c1O")
-4
>>> endpoint_result("Cc1c2cnccc2c(C)c2c1c1ccccc1n2CCCN")
29
>>> endpoint_result("BrC(Br)([P+](c1ccccc1)(c1ccccc1)c1ccccc1)[P+](c1ccccc1)(c1ccccc1)c1ccccc1")
4
>>> endpoint_result("CCOC(=O)C(=Cc1ccc(OC)cc1)C(=O)OCC")
18
>>> endpoint_result("CN1C/C(=C\\c2ccccc2)C(=O)/C(=C/c2ccccc2)C1")
10
>>> endpoint_result("CCCCC/C(=C/C=C/c1ccc(Cl)cc1)CN(C)C")
6
>>> endpoint_result("CCOC(=O)/C(=C\\c1cccc(C(F)(F)F)c1)P(=O)(OCC)OCC")
27
>>> endpoint_result("O=C1C(C=NC(=S)c2ccccc2)=C(O)c2ccccc21")
31
>>> endpoint_result("CCCCCCCCCCCCCCCCCCSSCCCCCCCCCCCCCCCCCC")
2
>>> endpoint_result("NC(=O)N/N=C/C(O)C(O)C(O)C(O)CO (stereo not given)")
-5
>>> endpoint_result("CCCCCCCCCCCCCCCCN[Si](NCCCCCCCCCCCCCCCC)(NCCCCCCCCCCCCCCCC)NCCCCCCCCCCCCCCCC")
99
>>> endpoint_result("C=C(CN(C)C)C(=O)c1ccc(OC2OC(COC(C)=O)C(OC(C)=O)C(OC(C)=O)C2OC(C)=O)cc1 (stereo not given)")
15
>>> endpoint_result("NC(=O)NCCCCC1NC(=S)N(c2ccccc2)C1=O (stereo not given)")
-9
>>> endpoint_result("Cc1ccc2nc(-c3ccc(N)cc3)sc2c1")
14
>>> endpoint_result("CC(C)=C1C=C2CCC3C(C)(C(=O)O)CCCC3(C)C2CC1 (stereo not given) (tested in a mixture with another compound)")
-7
>>> endpoint_result("O=C1CSC(=S)N1c1ccc(F)cc1F")
-3
>>> endpoint_result("CC1Cc2ccc3c(c2C(c2ccc4c(c2)OCO4)C1C)OCO3 (stereo not given)")
-5
>>> endpoint_result("CC(C)=CCC/C(=C/CC/C(C)=C/CCc1ccoc1)C(=O)O")
-9
>>> endpoint_result("COC(=O)CS(=O)(=O)CCS(=O)(=O)CC(=O)OC")
-1
>>> endpoint_result("O=c1oc2ccccc2c(O)c1C1=N/C(=N/N=C/c2ccc(Cl)cc2)SC1")
-1
>>> endpoint_result("OCC(c1ccccc1)[P+](c1ccccc1)(c1ccccc1)c1ccccc1 (stereo not given)")
0
>>> endpoint_result("Fc1ccc(CSC(=S)Nc2ccc(F)cc2)cc1")
-6
>>> endpoint_result("CCOc1ccnc2c(C)c3c([nH]c4ccccc43)c(C)c12")
11
>>> endpoint_result("Cc1nnc2nc3c(nn12)c1ccccc1n3C")
-64
>>> endpoint_result("O=C(n1c2ccccc2c2n[nH]c(=S)nc21)C(F)(F)F")
3
>>> endpoint_result("Cc1ccc(C(c2ccc(N(C)C)cc2)c2ccc(N(C)C)cc2)cc1")
98
>>> endpoint_result("CCCCCCCCCN1CCNC1=S")
34
